Biological target: TAS2R14 (Homo sapiens, UniProt Q9NYV8)
Sequence (Q9NYV8 1-317): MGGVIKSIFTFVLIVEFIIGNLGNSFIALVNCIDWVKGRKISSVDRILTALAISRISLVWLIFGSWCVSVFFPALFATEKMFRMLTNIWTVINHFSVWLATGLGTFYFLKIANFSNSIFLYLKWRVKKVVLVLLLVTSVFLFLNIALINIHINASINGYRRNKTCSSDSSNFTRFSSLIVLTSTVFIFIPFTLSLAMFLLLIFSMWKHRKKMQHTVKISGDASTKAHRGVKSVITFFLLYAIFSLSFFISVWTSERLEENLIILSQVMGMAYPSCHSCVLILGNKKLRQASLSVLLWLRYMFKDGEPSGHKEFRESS
Test: cell-based
Set-up: species or system HEK293T
Details: HEK-293T, read-out: Emax[%flu acid]
Consider the reported Emax of an entry and match it to a band in 0 = under 60%, 1 = from 60% up to 80%, 2 = 80% and over

O=C(O)c1ccccc1Nc1cccc(OC(F)(F)F)c1; 2

Band for the recorded Emax of FC(F)(F)c1cc(Nc2ccccc2-c2nnn[nH]2)c(Cl)c(C(F)(F)F)c1 ? 2

Would you kindly repeat that for O=C(O)c1ccccc1Nc1cc(OC2CC2)cc(C(F)(F)F)c1 ? 1

Please do the same for O=C(O)c1ccccc1Nc1cccc(OCc2ccc(Cl)cc2)c1 as well. 1

Moving on to NS(=O)(=O)c1ccccc1Nc1cccc(OCc2ccccc2)c1 [lw19a] 2

Thanks! And O=C(O)c1ccccc1Nc1cc(N2CCOCC2)cc(C(F)(F)F)c1 ? 0
